- assayed target: T1, human common cytokine receptor γ-chain (γc; IL-2Rγ; CD132), recombinant protein (human, UniProt P31785 23-262)
- T1 construct: also called human IL-2R subunit CD132
- T1 sequence: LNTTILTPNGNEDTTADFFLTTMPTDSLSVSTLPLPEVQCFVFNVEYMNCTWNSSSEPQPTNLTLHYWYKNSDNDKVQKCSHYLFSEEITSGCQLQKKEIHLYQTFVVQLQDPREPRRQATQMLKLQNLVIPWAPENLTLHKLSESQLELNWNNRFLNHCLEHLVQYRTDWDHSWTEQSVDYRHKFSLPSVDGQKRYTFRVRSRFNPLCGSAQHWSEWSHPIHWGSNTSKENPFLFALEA
- assay comment: ELISA, bivalent VHH-hFc
assay endpoint: pEC50
# log scale: pEC50 equals minus log10 of the concentration in mol/L

Give pEC50 for 27-MP04G01 VHH-hFc, monospecific bivalent (Fc fusion, IgG1 Fc LALA-PG; not shown: human IgG1 CH2 and CH3 domains (Fc)) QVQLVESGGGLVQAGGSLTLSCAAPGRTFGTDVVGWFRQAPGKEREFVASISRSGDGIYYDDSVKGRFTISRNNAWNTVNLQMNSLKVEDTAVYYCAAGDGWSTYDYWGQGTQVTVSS
9.88

Give pEC50 for 36-MP07F02 VHH-hFc, monospecific bivalent (Fc fusion, IgG1 Fc LALA-PG; not shown: human IgG1 CH2 and CH3 domains (Fc)) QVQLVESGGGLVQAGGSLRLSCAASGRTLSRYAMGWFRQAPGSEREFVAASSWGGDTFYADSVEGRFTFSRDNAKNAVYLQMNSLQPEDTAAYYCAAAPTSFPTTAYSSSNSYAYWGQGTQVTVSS
9.93

Give pEC50 for 32-MP04A08 VHH-hFc, monospecific bivalent (Fc fusion, IgG1 Fc LALA-PG; not shown: human IgG1 CH2 and CH3 domains (Fc)) QVQLVESGGGLVQAGGSLRLSCAASGRTFGSTAVGWFRQVPGKEREFVSAINRSGSATTYADSVKGRFTISRDNAKNTVYLQMNSLTPEDTGVYYCAADSLPYGRPYYFQRSAGEYDYWGQGTQVTVSS
9.85

Give pEC50 for 34-MP04A12 VHH-hFc, monospecific bivalent (Fc fusion, IgG1 Fc LALA-PG; not shown: human IgG1 CH2 and CH3 domains (Fc)) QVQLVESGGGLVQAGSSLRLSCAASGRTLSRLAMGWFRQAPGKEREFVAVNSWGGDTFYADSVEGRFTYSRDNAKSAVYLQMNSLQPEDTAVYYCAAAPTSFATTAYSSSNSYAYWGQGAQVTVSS
9.93
